# Tested on: HCT-15

Molecule | Tested Target | GI50
CSc1nnc(C(C#N)C#N)nn1 | HCT-15 | > 100 µM
COC(=O)c1nc(-c2ccc(Cl)c(Cl)c2)nc2ccccc12 | HCT-15 | > 100 µM
C/C(=N\C1CCCCC1)c1ccccc1O | HCT-15 | > 100 µM
CC1=CC(=O)C2=C(C)CCC3C(C)C(=O)OC3C12 (configuration not stated) | HCT-15 | > 100 µM
O/N=C(/CC(O)(C(F)(F)F)C(F)(F)F)c1ccccc1 | HCT-15 | > 10 µM
COC(=NC(C)C)NC(C)C | HCT-15 | > 100 µM
O=C(O)CN(CC(=O)O)C(C(=O)O)c1ccccc1 (configuration not stated) | HCT-15 | > 100 µM
Cc1ccc(C2(c3ccc(C)c(O)c3C)CCN(C)CC2)c(C)c1O | HCT-15 | > 100 µM
CCC(C(=O)C(=O)OC)P1(=O)OC(C)(C)CN1C(C)(C)C (configuration not stated) | HCT-15 | > 100 µM
c1ccc2c(c1)CCCC/C2=N/OCC1CO1 (configuration not stated) | HCT-15 | > 100 µM
O=C1CSC(c2c[nH]c3ccccc23)N1c1ccc(Cl)cc1Cl (configuration not stated) | HCT-15 | > 100 µM
N#CC(C(=O)/C(=N/N)C(C#N)c1ccccc1)c1ccccc1 (configuration not stated) | HCT-15 | > 100 µM
O=C(c1ccc(Cl)cc1)N(C(=S)N1CCN(c2ccccn2)CC1)c1ccccc1 | HCT-15 | > 100 µM
Cc1cccc(C(C)C)c1NC(=O)/C(Cc1c([N+](=O)[O-])cccc1[N+](=O)[O-])=N/NC(=O)CC#N | HCT-15 | > 100 µM
COc1ccc2nc3cccc([N+](=O)[O-])c3c(NCCC(=O)O)c2c1 | HCT-15 | > 10 µM
CCCCCCCCCCCCCCCCNc1nc(=O)n(C2OC(C)C(O)C2O)cc1F (configuration not stated) | HCT-15 | 14.9 µM
CSc1n[nH]c2[nH]nc(C)c12 | HCT-15 | > 100 µM
CCCNC(=O)N(C)C(=O)N1N=C(c2ccccc2)C1c1ccccc1 (configuration not stated) | HCT-15 | 45.3 µM
C[C@H](CCC(=O)O)[C@H]1CC[C@H]2[C@@H]3[C@@H](O)C[C@@H]4C[C@H](O)CC[C@]4(C)[C@H]3CC[C@]12C | HCT-15 | 67.3 µM
CC[C@]12C=CCN3CC[C@@]4(c5cc(Br)c(OC)c([N+](=O)[O-])c5N(C)[C@H]4[C@@](O)(C(=O)OC)[C@@H]1OC(C)=O)[C@@H]32 | HCT-15 | 65.3 µM
OCC(O)COCn1cc(Cn2ncc3c(NCc4ccccc4)ncnc32)nn1 (configuration not stated) | HCT-15 | > 100 µM
CCCCCCCCCCCCCCCC(=O)Nc1ccn(C2OC(CO)C(O)C2O)c(=O)n1 (configuration not stated) | HCT-15 | 17.7 µM
Cc1cc2c3c(nc4ccccc42)C(=O)c2ccccc2-c3n1 | HCT-15 | 1.35 µM
Cc1ccc(NC(=O)C(Cc2c[nH]c3ccccc23)NC(=O)Oc2ccccc2)cc1C (configuration not stated) | HCT-15 | 62.4 µM
N#C/C(=C1\OC(=N)C(c2ccc(Cl)cc2Cl)C1=O)c1ccc(Cl)cc1Cl (configuration not stated) | HCT-15 | > 100 µM
O=C1C[C@H](Sc2ccccc2)C2(OCCO2)[C@@H](Sc2ccccc2)C1 | HCT-15 | 1.68 µM
COc1cccc(OC)c1NC(=O)C(=O)Nn1c(NNC(=O)c2ccncc2)nc2ccccc2c1=O | HCT-15 | > 100 µM
COC(=O)C1Cc2c(C)cccc2C1=O (configuration not stated) | HCT-15 | > 100 µM
CCCCN(CCCC)C(=O)C(=O)C(C)C(=O)CC (configuration not stated) | HCT-15 | > 100 µM
CC1=Nc2ccccc2S(=O)(=O)N1 | HCT-15 | > 100 µM
O=C1c2ccccc2C(=O)C2C3c4ccccc4C(c4ccccc43)C12 (configuration not stated) | HCT-15 | 39 µM
Cc1cc(=O)n(-c2ccccc2C)c(C)n1 | HCT-15 | > 100 µM

====

# Test system: RXF 393
# Assay Explanation: NCI tumour cell line growth inhibition, 48 h
Activity calls are given as the source filed them. No stated cut-off is given here; in the data, active = GI50 up to about 1.1 µM and inactive = higher.
Classes used: Y for active, N for inactive

Molecule | Classification
CCO[C@]12C[C@H](OC)[C@@]3(O)CC(C1[C@H]3O)C13C4C2[C@H](OC)C1[C@](COC)(CN4CC)[C@H](O)C[C@@H]3OC (some centres undefined) | N
COC(=O)C1Cc2c(C)cccc2C1=O (centres undefined) | N
CN(C)CCOc1ccc2[nH]c(C(=O)N3CC(CCl)c4c3cc(NC(=O)OCc3ccc([N+](=O)[O-])cc3)c3ccccc43)cc2c1 (centres undefined) | N
CC(C)(C)OC(=O)NC(CCCCNC(=O)OCc1ccccc1)C(=O)NC(CCCCNC(=O)OCc1ccccc1)C(=O)ON1C(=O)CCC1=O (centres undefined) | N
O=C1C2CCCCC2C(=O)N1n1c(Cc2ccc(Cl)cc2)n[nH]c1=O (centres undefined) | N
Cc1cccc2c1CC1(Cc3c(C)cccc3C1=O)C2=O | N
Cc1csc(/N=C(/NCCN2CCOCC2)Nc2nc(C)cs2)n1 | N
CC[C@]12C=CCN3CC[C@@]4(c5cc(Br)c(OC)c([N+](=O)[O-])c5N(C)[C@H]4[C@@](O)(C(=O)OC)[C@@H]1OC(C)=O)[C@@H]32 | N
CCOc1ccc(/C=C2/C(=O)N=C(N)N=C2N)cc1OCC | N
N#CCCN(CCC#N)c1ccc(/C=C2\N=C(c3ccccc3)N(NC(=O)c3ccncc3)C2=O)cc1 | N
C/C(=N\C1CCCCC1)c1ccccc1O | N
Cc1c2oc3c(C)cnc(C(=O)NC4C(=O)NC(C(C)C)C(=O)N5CCCC5C(=O)N(C)CC(=O)N(C)C(C(C)C)C(=O)OC4C)c3nc-2c(C(=O)NC2C(=O)NC(C(C)C)C(=O)N3CCCC3C(=O)N(C)CC(=O)N(C)C(C(C)C)C(=O)OC2C)c(N)c1=O (centres undefined) | Y
CSc1n[nH]c2[nH]nc(C)c12 | N
O=C(O)C(O)c1ccc(F)cc1 (centres undefined) | N
COc1c(O)ccc(/C=N/NC(=S)NCOCCOC(C)=O)c1OC | N
CC1=C(CO)C(=O)O[C@@H]([C@@H](C)[C@H]2CC[C@H]3[C@@H]4C[C@@H](O)[C@@]5(O)CC=CC(=O)[C@]5(C)[C@H]4CC[C@]23C)C1 [JABOROSALACTONE D] | N
Clc1ccc(Cc2nc3ccccc3o2)cc1 | N
CCN(CC)C(=O)Cn1c(C)cc2ccccc21 | N
Nn1c(S)nnc1N/N=C1/C(=O)Nc2ccccc21 | N
O=C1c2cccc3cc4ccccc4c(c23)C(=O)N1CCCNCCNCCCN1C(=O)c2cccc3cc4ccccc4c(c23)C1=O | Y
COC(=O)c1ccccc1C1=C([N+](=O)[O-])C(c2cccc(Br)c2)C(C#N)=C(N)O1 (centres undefined) | N
COc1ccc2nc3cccc([N+](=O)[O-])c3c(NCCC(=O)O)c2c1 | N
CC(C)(C)OC(=O)NCCC1SC2C=CC1C2 (centres undefined) | N
N#CCCn1[nH]c(=O)c(Cl)c(Cl)c1=O | N

====

# Tested on: SF-295
# Assay Explanation: NCI tumour cell line growth inhibition, 48 h
Active and inactive are the calls of the source. No stated cut-off is given here; in the data, active = GI50 up to about 1.1 µM and inactive = higher.

Molecule | GI50
Cc1nc2[nH]ccn2c(=O)c1CCCl | 31.6 µM (inactive)
CC(=O)CCN1CC2CN=NC2(C#N)C1 (configuration not stated) | > 100 µM (inactive)
NCCCOc1ccc([N+](=O)[O-])cc1Cl | > 100 µM (inactive)
COC(=O)[C@@]12OC[C@]34C([C@@H](O)C1O)[C@@]1(C)CC(=O)C(OC(=O)CC(C)C(F)(F)F)=C(C)C1C[C@H]3OC(=O)[C@H](O)[C@H]42 (some centres not stated) | 5.16 µM (inactive)
O=C1C=CC2(C=C1)O[C@H](COCc1ccccc1)[C@@H](COCc1ccccc1)O2 | 16 µM (inactive)
Cc1ccc(S(=O)(=O)N2c3ccccc3[C@H]3CCc4c([nH]c5ccccc45)[C@H]32)cc1 | > 100 µM (inactive)
CCN(CC)C(=O)Cn1c(C)cc2ccccc21 | > 100 µM (inactive)

====

# Test system: SK-MEL-28
# Assay Explanation: NCI tumour cell line growth inhibition, 48 h
Activity calls are given as the source filed them. Rule as the data show it: active = GI50 up to about 1.1 µM and inactive = higher.

Molecule | Tested Target | GI50
COc1ccc(C2SC(=N)Nc3c2c(C)nn3C(=O)Cc2ccccc2)cc1 (stereo not drawn) | SK-MEL-28 | > 100 µM (inactive)
O=C(c1cccs1)N(C(=O)N1CCN(c2ccccc2)CC1)S(=O)(=O)c1ccccc1 | SK-MEL-28 | 22.4 µM (inactive)
O=C(O)C(CO)NC(=O)n1c2ccccc2c2ccccc21 (stereo not drawn) | SK-MEL-28 | > 100 µM (inactive)
COC(=O)C1=C(\c2ccccc2)c2ccccc2C(=O)N(C2CCCCC2)/C=C\1 | SK-MEL-28 | 17.9 µM (inactive)
Cc1nc2[nH]ccn2c(=O)c1CCCl | SK-MEL-28 | 30.1 µM (inactive)
C[C@@](Br)(C(=O)O)[C@H](Br)C(=O)O | SK-MEL-28 | > 100 µM (inactive)
OCC(O)COCn1cc(Cn2ncc3c(NCc4ccccc4)ncnc32)nn1 (stereo not drawn) | SK-MEL-28 | > 100 µM (inactive)
COc1ccc(COCC[C@H](C)OC2OC(CO[Si](C)(C)C(C)(C)C)C(OC(=O)CCCN=[N+]=[N-])C(OC(=O)CCCN=[N+]=[N-])C2OC(=O)CCCN=[N+]=[N-])cc1 (stereo partly drawn) | SK-MEL-28 | > 100 µM (inactive)
COc1ccc2nc3c([N+](=O)[O-])ccc4c3c(c2c1)N=CN4CCN(C)C | SK-MEL-28 | 7.01 µM (inactive)
CC1=NN(C(=O)c2ccccc2O)C(=O)/C1=C/c1cccc(O)c1 | SK-MEL-28 | 50.6 µM (inactive)
OCCNc1ncnc2c1ncn2C1OC(CO)C(O)C1O (stereo not drawn) | SK-MEL-28 | > 100 µM (inactive)
Clc1ccc(Cc2nc3ccccc3o2)cc1 | SK-MEL-28 | > 100 µM (inactive)
COc1nc2c(c(O)c(C)c(=O)n2OC2OC(COC(C)=O)C(OC(C)=O)C(OC(C)=O)C2OC(C)=O)c(=O)n1C (stereo not drawn) | SK-MEL-28 | > 100 µM (inactive)
